# Test system: Jurkat
# assay_protocol: Antiproliferative activity against human Jurkat cells assessed as inhibition of cell growth measured after 72 hrs by XTT assay
# Type: functional, cell-based
pIC50: −log10 of the molar value.

compound	modifier	pIC50
O=C(/C=C/c1cccnc1)NCC1OC1CC1CCN(C(=O)c2ccccc2)CC1 (stereo not given)	=	5.60
COc1ccc(C(=O)N2CCC(CCCCNC(=O)/C=C/c3cccnc3)CC2)c(OC)c1	=	8.08
O=C(/C=C/c1cccnc1)NCCCCC1CCN(C(=O)c2ccccc2)CC1	=	9.22
Cc1ccc(S(=O)(=O)N2CCC(CCCCNC(=O)/C=C/c3cccnc3)CC2)cc1	=	6.40
O=C(/C=C/c1cccnc1)NCCCCC1CCN(C(=O)C2CCCCC2)CC1	=	7.49
O=C(/C=C/c1cnccn1)NCCCCC1CCN(C(=O)c2ccccc2)CC1	<	6.00
O=C(/C=C/c1cccnc1)NCCCCC1CCN(C(=O)c2ccc(F)cc2)CC1	=	8.00
COc1cc(C=O)cc(OC)c1C(=O)N1CCC(CCCCNC(=O)/C=C/c2cccnc2F)CC1	=	9.10
O=C(/C=C/c1cccnc1)NCCCCC1CCN(C(=O)C2CCCCO2)CC1 (stereo not given)	=	7.30
O=C(/C=C/c1cccnc1)NCCCCC1CCN(C(=O)CCc2ccccc2)CC1	=	7.55
O=C(/C=C/c1cccnc1)NCCCCC1CCN(C(=O)c2ccc([N+](=O)[O-])cc2)CC1	=	7.17
O=C(/C=C/c1cccnc1)NC/C=C/CC1CCN(C(=O)c2ccccc2)CC1	=	8.00
O=C(/C=C/c1cccnc1)NCC(O)CCC1CCN(C(=O)c2ccccc2)CC1 (stereo not given)	=	5.46
O=C(/C=C/c1cccnc1)NCCCCC1CCN(C(=O)C2CCOCC2)CC1	=	7.52
O=C(/C=C/c1ccc(Cl)nc1Cl)NCCCCC1CCN(C(=O)c2ccccc2)CC1	=	5.60
O=C(/C=C/c1ccc[n+]([O-])c1)NCCCCC1CCN(C(=O)c2ccccc2)CC1	=	7.00
O=C(/C=C/c1cccnc1)NCCCCC1CCN(C(=O)C2CCCO2)CC1 (stereo not given)	=	7.52
COc1ccccc1C(=O)N1CCC(CCCCNC(=O)/C=C/c2cccnc2)CC1	=	8.64
O=C(/C=C/c1cccnc1)NCCCCC1CCN(C(=O)c2ccccc2O)CC1	=	8.24
COc1cccc(OC)c1C(=O)N1CCC(CCCCNC(=O)/C=C/c2cccnc2)CC1	=	9.10
